- assay details: Single-dose HOSU-53 PK in mice
- Format: in vivo, male C57BL/6 mice
- assay context: male, C57BL/6, mouse, plasma, oral, 10 mg/kg, 10 mpk PO; 48 h postdose; per mouse
reported metric: concentration at 48 h (µM)

[[record]]
line_notation = "CCCCOc1cccc(-c2ccc(-c3cc(C(=O)O)c4cc(F)ccc4n3)cc2)c1"
reported_metric = "concentration at 48 h"
result_value = 75.1


---

- assay details: Single-dose HOSU-53 PK in mice
- Assay type: in vivo, male C57BL/6 mice
- assay context: male, C57BL/6, mouse, plasma, oral, 10 mg/kg, 10 mpk PO; 8 h postdose; per mouse
reported metric: concentration at 8 h

[[record]]
line_notation = "CCCCOc1cccc(-c2ccc(-c3cc(C(=O)O)c4cc(F)ccc4n3)cc2)c1"
result_value = "175 µM"


---

- assay details: Single-dose HOSU-53 PK in mice
- Format: in vivo, male C57BL/6 mice
- assay context: male, C57BL/6, plasma, po; 10 mg/kg p.o. single dose, mouse; read-out: Plasma AUC0–72h
- Experimental: In the i.v. cohort, serial blood samples were collected in tubes containing K2EDTA at 0.083, 0.25, 0.5, 1, 2, 6, 24, 48, and 72 hours postdose while in the oral gavage cohort, serial blood samples were collected at 0.25, 0.5, 1, 2, 4, 8, 24, 48, and 72 hours postdose. […] The internal standard was d4-AEA monitored at 352.2 and 66.0 m/z transitions and the target analyte, HOSU-53, was monitored at 416.5 and 331.1 m/z transitions. […] DHO concentration quantification in mouse plasma samples. […]
reported metric: AUC(0-t)

[[record]]
line_notation = "CCCCOc1cccc(-c2ccc(-c3cc(C(=O)O)c4cc(F)ccc4n3)cc2)c1"
result_value = "7960 µM·h"


---

- assay details: Single-dose HOSU-53 PK in mice
- Format: in vivo, male C57BL/6 mice
- assay context: male, C57BL/6, mouse, plasma, oral, 10 mg/kg, 10 mpk PO; 0.25 h postdose; per mouse
reported metric: concentration at 0.25 h

[[record]]
line_notation = "CCCCOc1cccc(-c2ccc(-c3cc(C(=O)O)c4cc(F)ccc4n3)cc2)c1"
result_value = "114 µM"


---

Reported IC50 for target or system Dog DHODH (Canis lupus familiaris, UniProt A0A8I3MWX2), by entry.
reported metric: IC50 (nM)

[[record]]
line_notation = "CCCCOc1cccc(-c2ccc(-c3cc(C(=O)O)c4cc(F)ccc4n3)cc2)c1"
system = "Dog DHODH (Canis lupus familiaris, UniProt A0A8I3MWX2)"
unit_symbol = "nM"
result_value = 1.25

[[record]]
line_notation = "CCn1c(CO)nn(-c2cc(O[C@@H](C)C(F)(F)F)c(C(=O)Nc3c(F)cccc3Cl)cc2F)c1=O"
system = "Dog DHODH (Canis lupus familiaris, UniProt A0A8I3MWX2)"
unit_symbol = "nM"
result_value = 3.17


---

- assay details: Single-dose HOSU-53 PK in mice
- Type: in vivo, male C57BL/6 mice
- assay context: male, C57BL/6, mouse, plasma, oral, 10 mg/kg, 10 mpk PO; 1 h postdose; per mouse
reported metric: concentration at 1 h (µM)

[[record]]
line_notation = "CCCCOc1cccc(-c2ccc(-c3cc(C(=O)O)c4cc(F)ccc4n3)cc2)c1"
result_value = 209

